test: in vivo
runConditions: SD, rat, iv, 1 mg/kg
Binary classification by clearance, with 4 mL/min/kg as an inclusive lower bound for fulfilled; all other cases are not fulfilled.

| molecule | label |
| --- | --- |
| O=C(O)C1C2CCC(CC2)C1Nc1cc(C2CC2)nc(-c2c[nH]c3ncc(F)cc23)n1 (racemic) [Example 68] | fulfilled |
| Cn1ccc2c(NC3C4CCC(CC4)C3C(=O)O)nc(-c3c[nH]c4ncc(F)cc34)nc21 (racemic) [Example 65] | not fulfilled |
| O=C(O)C1C2CCC(CC2)C1Nc1nc(-c2c[nH]c3ncc(F)cc23)nc2c1CCCC2 (racemic) [Example 2] | fulfilled |
| CC(C)(C)[C@@H](CC(=O)O)Nc1nc(-c2c[nH]c3ncc(F)cc23)nc(-c2ccco2)c1F [Example 61] | fulfilled |
| Cc1nc2[nH]cc(-c3nc(NC4C5CCC(CC5)C4C(=O)O)cc(-c4ccccc4)n3)c2cc1F (racemic) [Example 80] | fulfilled |
| O=C(O)C1C2CCC(CC2)C1Nc1nc(-c2c[nH]c3ncc(F)cc23)nc2ccccc12 (racemic) [Example 1] | not fulfilled |
| O=C(O)C1C2CCC(CC2)C1Nc1nc(-c2c[nH]c3ncc(F)cc23)nc(C#Cc2ccccc2)c1F (racemic) [Example 63] | not fulfilled |

* * *

test: in vivo
runConditions: SD, rat, iv, 1 mg/kg
// values below are reported AUC(0-t)
outcomeMeasure: AUC(0-t)

| molecule | observedResult |
| --- | --- |
| Cc1nc2[nH]cc(-c3nc(NC4C5CCC(CC5)C4C(=O)O)cc(-c4ccccc4)n3)c2cc1F (racemic) | 3320 ng·h/mL |
| O=C(O)C1C2CCC(CC2)C1Nc1cc(-c2cc3ccccc3s2)nc(-c2c[nH]c3ncc(F)cc23)n1 (racemic) | 2510 ng·h/mL |
| O=C(O)C1C2CCC(CC2)C1Nc1nc(-c2c[nH]c3ncc(F)cc23)nc(C#Cc2ccccc2)c1F (racemic) | 4710 ng·h/mL |
| O=C(O)C1C2CCC(CC2)C1Nc1nc(-c2c[nH]c3ncc(F)cc23)nc2c1CCCC2 (racemic) | 3440 ng·h/mL |

* * *

Tested on: virus H1N1 A/Weiss/43
test: microbe, parasite or virus in culture
Assay type: cell-based
runConditions: Influenza A virus, 120 h; MDCK cells, H1N1 A/Weiss/43, Scheme 2: 8 concentrations 50 nM to 0.023 nM, 5 days, CCK-8
pEC50: −log10 of the molar value.
outcomeMeasure: pEC50

| compound | outcomeMeasure | observedResult |
| --- | --- | --- |
| O=C(O)C1C2CCC(CC2)C1Nc1nc(-c2c[nH]c3ncc(F)cc23)nc(-c2ccco2)c1F (racemic) | pEC50 | 10.17 |
| O=C(O)[C@H]1C2CCC(CC2)C1Nc1cc(-c2ccccc2)nc(-c2c[nH]c3ncc(F)cc23)n1 (stereo in doubt) | pEC50 | 9.77 |
| CC(C)n1ccc2c(NC3C4CCC(CC4)C3C(=O)O)nc(-c3c[nH]c4ncc(F)cc34)nc21 (racemic) | pEC50 | 9.59 |
| O=C(O)C1C2CCC(CC2)C1Nc1cc(-c2cccs2)nc(-c2c[nH]c3ncc(F)cc23)n1 (racemic) | pEC50 | 9.98 |
| O=C(O)[C@H]1C2CCC(CC2)C1Nc1cc(-c2ccc([N+](=O)[O-])o2)nc(-c2c[nH]c3ncc(F)cc23)n1 (stereo in doubt) [Example 24a] | pEC50 | 9.13 |
| O=C(O)[C@H]1C2CCC(CC2)C1Nc1cc(-c2ccco2)nc(-c2c[nH]c3ncc(F)cc23)n1 (stereo in doubt) | pEC50 | 10.41 |
